assay: NCI Yeast Anticancer Drug Screen. Data for the mgt1 strain (AID 153); settings: S. cerevisiae mgt1 mutant growth inhibition; at 33.0 µM; hits give high values
The panel holds about 79,000 compounds, 15% with a hit somewhere; the sample as a whole holds those more often.
quantity_kind: growth inhibition (%)

>  <molecule>
O=S(=O)(c1cccc(C(F)(F)F)c1)N1c2ccccc2-n2cccc2C1c1cccnc1 (configuration not stated)

>  <recorded_measurement>
94

$$$$
>  <molecule>
Cc1cc(C)c2[s+]snc2c1

>  <recorded_measurement>
12

$$$$
>  <molecule>
CC(=O)NC(c1nc2cc(C)c(C)cc2[nH]1)c1nc2cc(C)c(C)cc2[nH]1

>  <recorded_measurement>
59

$$$$
>  <molecule>
O=C(O)c1ccc2cc(Cl)c3ccccc3c2c1

>  <recorded_measurement>
41

$$$$
>  <molecule>
COC(=O)/C(C#N)=C\NC(=S)C(N)=S

>  <recorded_measurement>
99

$$$$
>  <molecule>
CCC(/C=C/c1ccccc1)=N\Nc1ccc(Cl)cc1

>  <recorded_measurement>
5

$$$$
>  <molecule>
CCC(/C=C/c1ccccc1)=N\Nc1ccc(Cl)c(Cl)c1

>  <recorded_measurement>
-3

$$$$
>  <molecule>
O=C1c2cccc3cccc(c23)C(=O)N1CCNCCN1C(=O)c2cccc3cccc(c23)C1=O

>  <recorded_measurement>
1

$$$$
>  <molecule>
CCCCCCCCN1COCC(COc2ccccc2C)OC1 (configuration not stated)

>  <recorded_measurement>
5

$$$$
>  <molecule>
c1ccc2c(c1)N=C1CCCC3CCCC123 (configuration not stated)

>  <recorded_measurement>
21

$$$$
>  <molecule>
CC(C)OP(=O)(OC(C)C)C(=NCCO)NNc1ccc([N+](=O)[O-])cc1

>  <recorded_measurement>
0

$$$$
>  <molecule>
COC(=O)C(Cl)(Cl)N=Nc1c(Cl)cc(Cl)c(C)c1Cl

>  <recorded_measurement>
98

$$$$
